# credit: patent US11173151B2

ASSAY_TARGET: human V2 receptor (Homo sapiens, UniProt P30518)
Construct: expressed in transfected cells; host or cells: CHO K1 (ATCC) expressing firefly luciferase under a CRE-responsive promoter
Sequence (P30518 whole entry): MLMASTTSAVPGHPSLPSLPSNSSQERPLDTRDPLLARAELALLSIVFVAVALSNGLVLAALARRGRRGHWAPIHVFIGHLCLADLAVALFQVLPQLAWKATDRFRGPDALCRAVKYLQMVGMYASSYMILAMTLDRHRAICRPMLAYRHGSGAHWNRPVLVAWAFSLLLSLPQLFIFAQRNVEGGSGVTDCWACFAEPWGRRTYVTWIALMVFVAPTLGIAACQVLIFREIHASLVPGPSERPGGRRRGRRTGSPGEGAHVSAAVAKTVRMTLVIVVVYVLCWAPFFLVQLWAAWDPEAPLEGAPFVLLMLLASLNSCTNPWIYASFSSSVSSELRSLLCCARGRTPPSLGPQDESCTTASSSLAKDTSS
ASSAY_INFO: Cellular in vitro assay for determining vasopressin receptor activity, V2 receptor cell line (CHO, CRE-luciferase)
Format: cell-based
MEASUREMENT_SETUP: CHO cell line transfected with human V2 receptor; [Arg8]-vasopressin at EC50 concentration, 3 hours; read-out: IC50 hV2
TEST_READOUT: pIC50
Just so you know, pIC50 here is -log10 of the concentration in molar units; reply with that number alone.

Incoming: Give the measured pIC50 of O=C(NC1CCC1)c1ccccc1-n1cnc(Cn2nc(-c3ccc(Cl)cc3)n(C[C@H](O)C(F)(F)F)c2=O)n1 .
Outgoing: 6.59

Incoming: O=C(c1cccc(Cl)c1-n1cnc(Cn2nc(-c3ccc(Cl)cc3)n(C[C@H](O)C(F)(F)F)c2=O)n1)N1CCC(C(F)(F)F)C1 (mixture of isomers) ?
Outgoing: 5.38

Incoming: CCn1nccc1NC(=O)c1ccccc1-n1cnc(Cn2nc(-c3ccc(Cl)cc3)n(C[C@H](O)C(F)(F)F)c2=O)n1 ?
Outgoing: 5.92
